The following binders are listed with their measured EC50 (CCK-2R) values.
Study target: T1, human cholecystokinin-2 receptor (human, UniProt P32239 1-447)
T1 sequence (looked up): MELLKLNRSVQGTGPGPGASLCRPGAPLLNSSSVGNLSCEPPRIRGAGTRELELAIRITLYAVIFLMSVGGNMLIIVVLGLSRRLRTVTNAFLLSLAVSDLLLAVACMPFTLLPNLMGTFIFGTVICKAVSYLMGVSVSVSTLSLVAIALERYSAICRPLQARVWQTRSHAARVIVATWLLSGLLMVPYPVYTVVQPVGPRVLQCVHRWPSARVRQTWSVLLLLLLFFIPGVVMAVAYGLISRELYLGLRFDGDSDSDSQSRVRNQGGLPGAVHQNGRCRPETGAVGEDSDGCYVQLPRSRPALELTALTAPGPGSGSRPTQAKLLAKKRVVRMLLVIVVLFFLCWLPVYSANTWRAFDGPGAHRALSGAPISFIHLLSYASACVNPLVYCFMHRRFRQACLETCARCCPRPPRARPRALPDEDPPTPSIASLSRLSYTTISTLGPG
Protocol description: cell-based or functional assay
Starred links: 1 amine or outer side, 2 acyl side, 3 side chain; linkers in the order of their positions; H or OH if unused. Non-standard residues stand in square brackets, D forms with d. *: point of attachment. Phe(4-CH2SO3H) = N[C@@H](Cc1ccc(CS(=O)(=O)O)cc1)C(=O)O; sY = N[C@@H](Cc1ccc(OS(=O)(=O)O)cc1)C(=O)O; C18 diacid = O=C(O)CCCCCCCCCCCCCCCCC(=O)*; γGlu = O=C(O)[C@H](CCC(=O)[*:2])N[*:1]; Met(O2) = CS(=O)(=O)CC[C@H](N)C(=O)O; NMeF = CN[C@@H](Cc1ccccc1)C(=O)O; dNMeD = CN[C@H](CC(=O)O)C(=O)O; Nle = CCCC[C@H](N)C(=O)O; AEEA = NCCOCCOCC(=O)O
Observable: EC50 (CCK-2R) (nM)

Binder	Observable	U	Comparison symbol	Reported
{C18 diacid-γGlu-AEEA-AEEA}-D[Phe(4-CH2SO3H)]LGW[Nle][dNMeD][NMeF]-NH2 (X = Nle or Nal)	EC50 (CCK-2R)	nM	=	81
{C18 diacid-γGlu-AEEA-AEEA}-D[sY]LGW[Met(O2)][dNMeD][NMeF]-NH2	EC50 (CCK-2R)	nM	>	1000
{C18 diacid-γGlu-AEEA-AEEA}-D[sY]FGW[Nle][dNMeD][NMeF]-NH2 (SMILES CCCC[C@H](NC(=O)[C@H](Cc1c[nH]c2ccccc12)NC(=O)CNC(=O)[C@H](Cc1ccccc1)NC(=O)[C@H](Cc1ccc(OS(=O)(=O)O)cc1)NC(=O)[C@H](CC(=O)O)NC(=O)COCCOCCNC(=O)COCCOCCNC(=O)CC[C@H](NC(=O)CCCCCCCCCCCCCCCCC(=O)O)C(=O)O)C(=O)N(C)[C@H](CC(=O)O)C(=O)N(C)[C@@H](Cc1ccccc1)C(N)=O, X = Nle or Nal)	EC50 (CCK-2R)	nM	=	390
